# procedure.summary: Phase 1 Stage 1 clinical pharmacokinetics of SC ZA co-administered with rHuPH20
# Assay type: in vivo, human
# condition.context: human, serum; Subj 29; ZA 0.0339 mg/kg SC; inf 0.556 hr; PH20 24000 U; read-out: T½ λz (converted)
measured.property: half-life
Kindly format the answer as number then unit.

Problem: Output half-life of O=P(O)(O)C(O)(Cn1ccnc1)P(=O)(O)O [ZA]
Solution: 8.7 h

* * *

# procedure.summary: Phase 1 Stage 1 clinical pharmacokinetics of SC ZA co-administered with rHuPH20
# Assay type: in vivo, human
# condition.context: human, serum, sc, […], AUC (0-48 h), Subj 31; ZA […] SC; inf 0.554 hr; PH20 23952 U
measured.property: AUC(0-t) (ng·h/mL)
Numbers only, in ng·h/mL.

Problem: Tell me measured AUC(0-t) for O=P(O)(O)C(O)(Cn1ccnc1)P(=O)(O)O [ZA] please.
Solution: 234

* * *

# procedure.summary: Phase 1 Stage 1 clinical pharmacokinetics of SC ZA co-administered with rHuPH20
# Assay type: in vivo, human
# condition.context: human, serum, sc, serum; ZA 0.5 mg SC infusion + 24000 Units rHuPH20; 6 h post infusion; n=3; read-out: Mean Conc.
# Protocol: A pharmacokinetic study of zoledronic acid (ZA) co-administered with rHuPH20 in human subjects was conducted. […] Serum concentration of ZA was determined using a qualified LC-MS-MS assay after derivatization with diazomethane (Zhu, L S et al. (2006) Rapid Commun. […] The assay range was from 2.0 to 400 ng/mL with a lower limit of quantitation (LLOQ) at 2.0 ng/mL. […] Summary statistics (mean, standard deviation, and median) were calculated using JMP or Microsoft Excel.
measured.property: concentration at 6 h
Your reply should be a number followed by the unit it is expressed in.

Problem: Output measured concentration at 6 h for this item: O=P(O)(O)C(O)(Cn1ccnc1)P(=O)(O)O
Solution: 2.69 ng/mL

* * *

# procedure.summary: Phase 1 Stage 1 clinical pharmacokinetics of SC ZA co-administered with rHuPH20
# Assay type: in vivo, human
# condition.context: human, serum, sc, serum; ZA 2 mg SC infusion + 24000 Units rHuPH20; 10 min post infusion; n=3; read-out: Mean Conc.
measured.property: concentration at 10 min
Kindly report the value followed by its unit.

Problem: Return concentration at 10 min (reported value) for this compound: O=P(O)(O)C(O)(Cn1ccnc1)P(=O)(O)O
Solution: 48.3 ng/mL

* * *

# procedure.summary: Pharmacokinetics of ZA in pig serum after IV or SC infusion with or without rHuPH20 (LC-MS-MS, non-compartmental analysis)
# Type: in vivo
# condition.context: female, Yorkshire, pig, serum, intravenous, […], animal ID 61, Study Group 1, IV 20 min infusion, ZA […], rHuPH20 0 U/mL, time 0.333 h; read-out: Zoledronic Acid Serum Concentration
measured.property: concentration at 0.333 h (ng/mL)
Numbers only, in ng/mL.

Problem: // Input: O=P(O)(O)C(O)(Cn1ccnc1)P(=O)(O)O [ZA] . Output its concentration at 0.333 h only.
Solution: 596

* * *

# procedure.summary: Pharmacokinetics of ZA in pig serum after IV or SC infusion with or without rHuPH20 (LC-MS-MS, non-compartmental analysis)
# Type: in vivo
# condition.context: female, Yorkshire, pig, serum, subcutaneous, […], Time 0.05 h; pig ID 62; Study Group 2; SC; ZA […]; 50 mL, 8 min; rHuPH20 0 U/mL; read-out: Zoledronic Acid Serum Concentration
# Experimental: A pharmacokinetic study of zoledronic acid (ZA) co-administered with rHuPH20 in female Yorkshire swines was conducted. […] Serum concentration of ZA was determined using a qualified LC-MS-MS assay after derivatization with diazomethane (Zhu, L S et al. (2006) Rapid Commun. Mass Spectrom. 20: 3421-3426; “Qualification Data of An LC-MS/MS Method for the Determination of Zoledronate in Porcine Serum”, MDS Pharma Services Study No. AA43671-01, Report Date 14 Sep. 2007). […]
measured.property: concentration at 0.05 h (ng/mL)
One number for each entry, in ng/mL.

Problem: Specify reported concentration at 0.05 h for the compound shown: O=P(O)(O)C(O)(Cn1ccnc1)P(=O)(O)O [ZA]
Solution: 97.6

* * *

# procedure.summary: Phase 1 Stage 1 clinical pharmacokinetics of SC ZA co-administered with rHuPH20
# Format: in vivo, human
# condition.context: human, serum, sc, […], AUC (0-48 h), Subj 1; ZA […] SC; inf 0.554 hr; PH20 23928 U
measured.property: AUC(0-t)

Problem: For the molecule O=P(O)(O)C(O)(Cn1ccnc1)P(=O)(O)O , give its measured AUC(0-t) value.
Solution: 0.0294 µg·h/mL

* * *

# procedure.summary: Pharmacokinetics of ZA in pig serum after IV or SC infusion with or without rHuPH20 (LC-MS-MS, non-compartmental analysis)
# Type: in vivo
# condition.context: female, Yorkshire, pig, serum, subcutaneous, […], Time 4 h; pig ID 59; Study Group 2; SC; ZA […]; 100 mL, 16 min; rHuPH20 0 U/mL; read-out: Zoledronic Acid Serum Concentration
# Procedure: A pharmacokinetic study of zoledronic acid (ZA) co-administered with rHuPH20 in female Yorkshire swines was conducted. […] Serum concentration of ZA was determined using a qualified LC-MS-MS assay after derivatization with diazomethane (Zhu, L S et al. (2006) Rapid Commun. Mass Spectrom. 20: 3421-3426; “Qualification Data of An LC-MS/MS Method for the Determination of Zoledronate in Porcine Serum”, MDS Pharma Services Study No. AA43671-01, Report Date 14 Sep. 2007). […]
measured.property: concentration at 4 h (ng/mL)
Answers are plain numbers, in ng/mL.

Problem: Look up and report measured concentration at 4 h for this entry: O=P(O)(O)C(O)(Cn1ccnc1)P(=O)(O)O [ZA]
Solution: 6.48

* * *

# procedure.summary: Phase 1 Stage 1 clinical pharmacokinetics of SC ZA co-administered with rHuPH20
# Type: in vivo, human
# condition.context: human, serum, sc, […], Subj 25; ZA […] SC; inf 0.549 hr; PH20 23736 U
measured.property: Cmax (ng/mL)
Numbers only, in ng/mL.

Problem: Please report Cmax for the following compound: O=P(O)(O)C(O)(Cn1ccnc1)P(=O)(O)O
Solution: 30.1

* * *

# procedure.summary: Pharmacokinetics of ZA in pig serum after IV or SC infusion with or without rHuPH20 (LC-MS-MS, non-compartmental analysis)
# Assay type: in vivo
# condition.context: female, Yorkshire, pig, serum, sc, […], pig; SC ZA […], no rHuPH20 (Study Group 2); n=4; read-out: Vss/F, mean
measured.property: Vd/F
Note: state the figure and append the unit.

Problem: Please report Vd/F for the following compound: O=P(O)(O)C(O)(Cn1ccnc1)P(=O)(O)O
Solution: 0.607 L/kg

* * *

# procedure.summary: Pharmacokinetics of ZA in pig serum after IV or SC infusion with or without rHuPH20 (LC-MS-MS, non-compartmental analysis)
# Type: in vivo
# condition.context: female, Yorkshire, pig, serum, subcutaneous, […], pig 68, Study Group 3, SC, ZA […], rHuPH20 10000 U/mL, 10 mL over 1.6 min, time 0.5 h; read-out: Zoledronic Acid Serum Concentration
measured.property: concentration at 0.5 h

Problem: Give recorded concentration at 0.5 h. O=P(O)(O)C(O)(Cn1ccnc1)P(=O)(O)O
Solution: 175 ng/mL

* * *

# procedure.summary: Phase 1 Stage 1 clinical pharmacokinetics of SC ZA co-administered with rHuPH20
# Assay type: in vivo, human
# condition.context: human, serum, sc, […], Subj 18; ZA […] SC; inf […]; PH20 23304 U
measured.property: Cmax (ng/mL)
One number for each entry, in ng/mL.

Problem: Tell me measured Cmax for O=P(O)(O)C(O)(Cn1ccnc1)P(=O)(O)O please.
Solution: 17.1

* * *

# procedure.summary: Phase 1 Stage 1 clinical pharmacokinetics of SC ZA co-administered with rHuPH20
# Type: in vivo, human
# condition.context: human, serum, sc, ZA 1 mg SC + 24000 U rHuPH20; median, n=3
measured.property: Cmax (ng/mL)
One number for each entry, in ng/mL.

Problem: Specify Cmax for O=P(O)(O)C(O)(Cn1ccnc1)P(=O)(O)O and stop.
Solution: 30.1

* * *

# procedure.summary: Phase 1 Stage 1 clinical pharmacokinetics of SC ZA co-administered with rHuPH20
# Assay type: in vivo, human
# condition.context: human, serum, sc, serum; ZA 5 mg SC infusion + 24000 Units rHuPH20; 0.5 h post infusion; n=3; read-out: Mean Conc.
# Experimental: A pharmacokinetic study of zoledronic acid (ZA) co-administered with rHuPH20 in human subjects was conducted. […] Serum concentration of ZA was determined using a qualified LC-MS-MS assay after derivatization with diazomethane (Zhu, L S et al. (2006) Rapid Commun. […] The assay range was from 2.0 to 400 ng/mL with a lower limit of quantitation (LLOQ) at 2.0 ng/mL. […] Summary statistics (mean, standard deviation, and median) were calculated using JMP or Microsoft Excel.
measured.property: concentration at 0.5 h (µg/mL)
One number for each entry, in µg/mL.

Problem: Identify concentration at 0.5 h associated with the molecule O=P(O)(O)C(O)(Cn1ccnc1)P(=O)(O)O [ZA]
Solution: 0.125
